TGT: T1, human mutCALR on BaF3 cells stably expressing human MPL and human mutCALR (MPL-mutCALR cells) (human)
T1 construct: also called mutant calreticulin
T1 chain: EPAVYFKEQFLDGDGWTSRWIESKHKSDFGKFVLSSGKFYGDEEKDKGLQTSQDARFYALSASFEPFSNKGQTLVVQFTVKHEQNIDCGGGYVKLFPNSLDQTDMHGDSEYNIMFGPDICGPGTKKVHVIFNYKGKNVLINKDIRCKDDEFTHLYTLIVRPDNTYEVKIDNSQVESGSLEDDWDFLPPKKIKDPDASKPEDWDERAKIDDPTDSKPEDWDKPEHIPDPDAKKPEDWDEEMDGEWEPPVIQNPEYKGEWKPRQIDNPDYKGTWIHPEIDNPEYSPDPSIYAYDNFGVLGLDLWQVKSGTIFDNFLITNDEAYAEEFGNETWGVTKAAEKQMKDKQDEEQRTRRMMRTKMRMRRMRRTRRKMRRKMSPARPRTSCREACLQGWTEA
TEST PROTOCOL: flow cytometry, BaF3 MPL-mutCALR cells
Method: On the day of the assay, cells were washed and resuspended in assay buffer. Approximately 200,000 cells/well were added to 96-well plates and stained with the indicated concentration of antibodies for 30 minutes on ice. Cells were then washed and stained with goat anti-human secondary conjugated to R-phycoerythrin (R-PE) (Jackson Immuno Research Laboratories) for 30 minutes on ice. The cells were then washed and analyzed by flow cytometry.
MEASUREMENT NAME: EC50 (ng/mL)
Give the quantity in ng/mL, number only.

Item anti-mutCALR antibody clone 65 (antibody, human IgG1, lambda, N297A, V domains shown) VH: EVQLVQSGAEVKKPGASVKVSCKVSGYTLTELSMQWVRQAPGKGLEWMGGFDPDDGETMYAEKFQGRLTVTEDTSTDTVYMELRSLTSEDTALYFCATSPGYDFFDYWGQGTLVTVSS VL: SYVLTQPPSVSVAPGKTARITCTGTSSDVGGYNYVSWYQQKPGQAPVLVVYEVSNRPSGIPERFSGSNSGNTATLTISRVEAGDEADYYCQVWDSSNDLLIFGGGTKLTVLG : provide EC50
5.9

Value source: patent US20230272055A1
